Some sequences, each annotated with its measured ETS1 binding intensity.
- TARGET OR TEST SYSTEM: ETS1 (UniProt P14921)
- Sequence: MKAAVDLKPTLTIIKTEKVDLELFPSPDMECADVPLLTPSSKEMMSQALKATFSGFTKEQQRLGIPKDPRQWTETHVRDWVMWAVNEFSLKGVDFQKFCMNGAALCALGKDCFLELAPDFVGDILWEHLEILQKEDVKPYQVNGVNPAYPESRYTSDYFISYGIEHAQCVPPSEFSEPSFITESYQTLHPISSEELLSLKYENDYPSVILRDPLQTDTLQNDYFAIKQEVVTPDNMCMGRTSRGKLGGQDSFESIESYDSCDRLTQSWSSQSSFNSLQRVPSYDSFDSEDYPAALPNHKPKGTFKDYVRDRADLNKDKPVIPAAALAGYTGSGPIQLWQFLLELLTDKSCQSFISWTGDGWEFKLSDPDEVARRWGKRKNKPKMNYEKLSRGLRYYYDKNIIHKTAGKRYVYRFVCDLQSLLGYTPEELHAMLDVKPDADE
- PROTOCOL TEXT: ETS1 binding intensity (PBM fluorescence) (arbitrary fluorescence units); higher = stronger binding
- MEASUREMENT CONTEXT: ETS1 concentration 10 nM
In all, about 2,700 sequences were measured (“arbitrary fluorescence units”: median about 4,100, highest 2% from about 54,000 on). The entries come from a sample that favours the highest values as a whole.
Provide a numeric answer; units are not to be included.

Known ETS1 binding intensity results, listed for orientation:
>  <SEQUENCE CHAIN>
GGCAAAAACCCACATCCTCTTCCGCTGGCTCCACCT

>  <QUANTITY NAME>
ETS1 binding intensity

>  <MEASUREMENT>
8480

$$$$
>  <SEQUENCE CHAIN>
TTCCTCAGGGAAGTTCGGGTGAGAGGAAGTGCCTGC

>  <QUANTITY NAME>
ETS1 binding intensity

>  <MEASUREMENT>
228

$$$$

Item "AGCAACTTCCGGTGCGCTTAGCGTTACTTCCGGCGC" has what recorded ETS1 binding intensity?
116000

Item "GTTACTTCCTCTCCCCAGGTCTCTCGGTTTCCTCAT" has what recorded ETS1 binding intensity?
23600

Item "GAGGGTAACTTCCTGTTTCTGCCTTCCGGGTTTGAG" has what recorded ETS1 binding intensity?
47100

Item "CGTCCACTGGAGGCTTCCTTCCGGCGCCCGCGTGCC" has what recorded ETS1 binding intensity?
3590

Item "CGTCCTGACTTCCGGGGCGGGACGGAAGAGCGGGCG" has what recorded ETS1 binding intensity?
25800

Item "TAGTCCTGAAACTTCCTCTGCTTCCTCCTCCTGCCC" has what recorded ETS1 binding intensity?
2700

Item "TTCTTGGCCACATCCGTCTCCCGGAACTGCTCCTTC" has what recorded ETS1 binding intensity?
8980

Item "TTTTATTTCCGGTTCTGAGGACGCCGCGGAAGCGGG" has what recorded ETS1 binding intensity?
78400

Item "CTCGCAGGCTTCCCGGCTGCAACTTCCGGCGCATGC" has what recorded ETS1 binding intensity?
14600

Item "GCGCCTGATTCACTTCCCTCTTCCGCTCTGAGGCGT" has what recorded ETS1 binding intensity?
4680

Item "GCGCTTCGGGCCCTTCCGGCTTCCCGGGCCTCCCGG" has what recorded ETS1 binding intensity?
8330

These measurements were taken from the supplement of paper PMC10681739.
